B1: library; a variant is named by its letters at N, in order (parent)
chain: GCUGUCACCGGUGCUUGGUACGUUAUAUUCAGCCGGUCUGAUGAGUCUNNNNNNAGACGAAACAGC

# Variants of: B1
# experimental.protocol: normalized RNA/DNA level with ligand (relative to sTRSVctl = 100) (log10 (% of sTRSVctl)); HEK293T overexpressing SLC46A1; ligand concentration (+) RNA-Seq: 6 mM; higher = less ribozyme self-cleavage, higher mRNA level
# condition.set: with (6R,S)-folinic acid; ligand present: yes
For each record, write down the corresponding normalized RNA/DNA level with ligand (log10).
Answers are plain numbers.

Below: 8 variants and their reported normalized RNA/DNA level with ligand (log10).
CUUGCU 2.04
AAGCAG 2
UCUCUA 2.01
GGACUC 2.05
GGCCCC 2.01
CGCCCU 2.09
ACGCUG 2.06
GAUAGA 2

Please look at the items below and tell me normalized RNA/DNA level with ligand (log10) for each one, in order.
1. AUCUGU
2. AAAUAA

Result:
[2.06, 1.98]

Please look at the items below and tell me normalized RNA/DNA level with ligand (log10) for each one, in order.
1. CAUAAA
2. CAGCUC
3. GUCUAA
4. UAUCCG

Result:
[1.96, 2.03, 1.99, 1.99]

Please look at the items below and tell me normalized RNA/DNA level with ligand (log10) for each one, in order.
1. GUCCUC
2. AGUCGA
3. UCAUUG

Result:
2.05
2.02
2

Please look at the items below and tell me normalized RNA/DNA level with ligand (log10) for each one, in order.
1. GUACUG
2. UGUCGC
3. GCCUAC

Result:
1: 2.02; 2: 2.02; 3: 2.09
